Tested on: rabbit corpus cavernosum tissue
assay.procedure: Rabbit corpus cavernosum strips: relaxation of phenylephrine-induced force
stated.conditions: Oryctolagus cuniculus; inhibition of phenylephrine (3 μM)-induced force as compared to vehicle control; read-out: % Inhibition of force (RCC strips)
Assign Condition met to entries whose inhibition meets or exceeds 40%; assign Condition not met to the rest.

These solved cases illustrate the format of a correct answer.
>>> qualitative_label("O=c1[nH]c2ccc(C(F)(F)F)cc2c(-c2cc(Cl)ccc2O)c1SCCO")
"Condition met"
>>> qualitative_label("O=c1[nH]c2ccc(C(F)(F)F)cc2c(-c2cc(Cl)ccc2O)c1SCC(O)CO (racemic)")
"Condition not met"
>>> qualitative_label("COc1ccc(Cl)cc1-c1c(SCC(=O)O)c(=O)[nH]c2ccc(C(F)(F)F)cc12")
"Condition not met"
>>> qualitative_label("O=c1[nH]c2ccc(C(F)(F)F)cc2c(-c2cc(Cl)ccc2O)c1SC[C@@H](O)CO")
"Condition met"
>>> qualitative_label("O=c1[nH]c2ccc(C(F)(F)F)cc2c(-c2cc(Cl)ccc2O)c1SCCCO")
"Condition not met"

Tell me whether inhibition is at least 40% here: NC(=O)NCCSc1c(-c2cc(Cl)ccc2O)c2cc(C(F)(F)F)ccc2[nH]c1=O
Condition met

* * *

measured.parameter: melting point

Guide cases for melting point, answers given:
>>> result("COc1ccc(Cl)cc1-c1c(SCCO)c(=O)[nH]c2ccc(C(F)(F)F)cc12 [Example 16]")
"98 to 100 °C"
>>> result("O=c1[nH]c2ccc(C(F)(F)F)cc2c(-c2cc(Cl)ccc2O)c1SCC(O)CO (racemic) [Example 17]")
"178 to 180 °C"
>>> result("COc1ccc(Cl)cc1-c1c(S/C=C/CO)c(=O)[nH]c2ccc(C(F)(F)F)cc12 [Example 21]")
"148 to 150 °C"

# next molecule below
For COc1ccc(Cl)cc1-c1c(SCC(O)CO)c(=O)[nH]c2ccc(C(F)(F)F)cc12 (stereo not shown) [Example 20] the molecule record lists melting point as 110 to 114 °C

* * *

List of melting point values.
Use °C as the unit, but write only the number.

Answered examples (3):
>>> readout_number("N#CCCCSc1c(-c2cc(Cl)ccc2O)c2cc(C(F)(F)F)ccc2[nH]c1=O")
217
>>> readout_number("COc1ccc(Cl)cc1-c1c(SCC(=O)O)c(=O)[nH]c2ccc(C(F)(F)F)cc12")
235
>>> readout_number("N#CCCSc1c(-c2cc(Cl)ccc2O)c2cc(C(F)(F)F)ccc2[nH]c1=O")
140

Turning now to a further compound:
In plain terms, COc1ccc(Cl)cc1-c1c(SCCCO)c(=O)[nH]c2ccc(C(F)(F)F)cc12 has a documented melting point of 211

* * *

Reported melting point values for a set of molecules

>>> result("O=c1[nH]c2ccc(C(F)(F)F)cc2c(-c2cc(Cl)ccc2O)c1SCCCO [Example 14]")
"178 to 180 °C"
>>> result("COc1ccc(Cl)cc1-c1c(S)c(=O)[nH]c2ccc(C(F)(F)F)cc12 [Example 9]")
"239 to 241 °C"

Attention now turns to another entry.
melting point recorded for this molecule, O=c1[nH]c2ccc(C(F)(F)F)cc2c(-c2cc(Cl)ccc2O)c1SCCO [Example 10] , is 278 to 279 °C
